Parameter: clearance. Scope: all listed entries.
# assay notes: Pharmacokinetic property (CLb)of the compound was determined in rat
# Format: ADME, organism-based
# test parameters: blood, read-out: CLb
Give the value in mL/min/kg but do not write mL/min/kg after it.

compound	value kind	measurement
CCCN(CCCCNC(=O)c1ccc(-c2ccccc2)cc1)C1CCc2c(Cl)cccc2C1 (configuration not stated)	clearance	80

Now consider a different compound.
The measured clearance associated with `O=C(NCCCCN1CCc2ccccc2C1)c1ccc(-c2ccccc2)cc1` reads 20

---

# experimental target: D(2) dopamine receptor (Homo sapiens)
# Sequence (P14416 whole entry): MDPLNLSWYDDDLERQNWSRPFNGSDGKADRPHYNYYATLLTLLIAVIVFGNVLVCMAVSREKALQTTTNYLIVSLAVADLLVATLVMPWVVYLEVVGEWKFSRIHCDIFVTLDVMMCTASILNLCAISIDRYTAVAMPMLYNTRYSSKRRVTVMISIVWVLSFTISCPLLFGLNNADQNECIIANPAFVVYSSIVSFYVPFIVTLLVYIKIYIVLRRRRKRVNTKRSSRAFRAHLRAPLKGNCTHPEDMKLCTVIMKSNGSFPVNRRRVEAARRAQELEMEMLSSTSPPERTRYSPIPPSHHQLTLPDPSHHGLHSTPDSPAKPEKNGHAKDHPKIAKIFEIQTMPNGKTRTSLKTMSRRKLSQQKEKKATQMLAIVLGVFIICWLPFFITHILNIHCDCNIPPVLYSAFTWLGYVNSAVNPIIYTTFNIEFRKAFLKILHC
# assay notes: Displacement [125I]iodosulpiride from human Dopamine receptor D2 expressed in CHO cells
Parameter: pKi. Scope: all listed entries.
Please keep in mind that pKi is minus log10 of the molar concentration; only the number is needed.

chemical structure	pKi
Cn1c(=O)ccc2cc(/C=C/C(=O)NCCCCN3CCc4ccc(OS(=O)(=O)C(F)(F)F)cc4C3)ccc21	6.50

Fill in: D(2) dopamine receptor (Homo sapiens) pKi for `O=C(/C=C/c1ccccc1)NCCCCN1CCc2ccc(OS(=O)(=O)C(F)(F)F)cc2C1` = 6.50

Fill in: D(2) dopamine receptor (Homo sapiens) pKi for `O=C(/C=C/c1ccc2ccccc2c1)NCCCCN1CCc2ccc(OS(=O)(=O)C(F)(F)F)cc2C1` = 6.00

Fill in: D(2) dopamine receptor (Homo sapiens) pKi for `O=C(/C=C\c1ccccc1)NCCCCN1CCc2ccc(OS(=O)(=O)C(F)(F)F)cc2C1` = 6.50

Fill in: D(2) dopamine receptor (Homo sapiens) pKi for `O=C(NCCCCN1CCc2ccc(OS(=O)(=O)C(F)(F)F)cc2C1)c1ccc(-c2ccccc2)cc1` = 6.30

Fill in: D(2) dopamine receptor (Homo sapiens) pKi for `CC(=O)c1cccc(/C=C/C(=O)NCCCCN2CCc3ccc(OS(=O)(=O)C(F)(F)F)cc3C2)c1` = 6.40
